Values from patent US11731977B2

Quick list: pEC50 per entry.
target desc: sGC enzyme (Homo sapiens, UniProt Q02108+Q02153)
Construct: sGC enzyme activity values in HEK cells, determined by the GloSensor assay; host or cells: HEK293 cells stably expressing GloSensor 40F cGMP biosensor
Sequence (Q02153 whole entry): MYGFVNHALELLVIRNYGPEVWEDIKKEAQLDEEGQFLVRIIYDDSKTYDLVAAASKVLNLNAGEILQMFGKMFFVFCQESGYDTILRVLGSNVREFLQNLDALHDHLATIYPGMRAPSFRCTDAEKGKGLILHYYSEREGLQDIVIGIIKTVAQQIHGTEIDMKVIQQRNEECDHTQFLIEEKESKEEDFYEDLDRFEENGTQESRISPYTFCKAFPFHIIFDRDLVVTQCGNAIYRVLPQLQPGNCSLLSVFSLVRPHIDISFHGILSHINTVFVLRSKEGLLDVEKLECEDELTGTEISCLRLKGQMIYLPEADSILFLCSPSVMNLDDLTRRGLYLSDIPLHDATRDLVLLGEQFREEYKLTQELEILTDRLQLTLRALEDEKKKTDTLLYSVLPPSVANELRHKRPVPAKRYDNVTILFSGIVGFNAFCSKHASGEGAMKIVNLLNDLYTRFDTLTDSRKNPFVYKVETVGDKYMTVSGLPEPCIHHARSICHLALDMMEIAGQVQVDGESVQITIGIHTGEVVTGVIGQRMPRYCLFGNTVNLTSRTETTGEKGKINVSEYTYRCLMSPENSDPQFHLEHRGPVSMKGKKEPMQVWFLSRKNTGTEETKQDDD
Sequence (Q02108 whole entry): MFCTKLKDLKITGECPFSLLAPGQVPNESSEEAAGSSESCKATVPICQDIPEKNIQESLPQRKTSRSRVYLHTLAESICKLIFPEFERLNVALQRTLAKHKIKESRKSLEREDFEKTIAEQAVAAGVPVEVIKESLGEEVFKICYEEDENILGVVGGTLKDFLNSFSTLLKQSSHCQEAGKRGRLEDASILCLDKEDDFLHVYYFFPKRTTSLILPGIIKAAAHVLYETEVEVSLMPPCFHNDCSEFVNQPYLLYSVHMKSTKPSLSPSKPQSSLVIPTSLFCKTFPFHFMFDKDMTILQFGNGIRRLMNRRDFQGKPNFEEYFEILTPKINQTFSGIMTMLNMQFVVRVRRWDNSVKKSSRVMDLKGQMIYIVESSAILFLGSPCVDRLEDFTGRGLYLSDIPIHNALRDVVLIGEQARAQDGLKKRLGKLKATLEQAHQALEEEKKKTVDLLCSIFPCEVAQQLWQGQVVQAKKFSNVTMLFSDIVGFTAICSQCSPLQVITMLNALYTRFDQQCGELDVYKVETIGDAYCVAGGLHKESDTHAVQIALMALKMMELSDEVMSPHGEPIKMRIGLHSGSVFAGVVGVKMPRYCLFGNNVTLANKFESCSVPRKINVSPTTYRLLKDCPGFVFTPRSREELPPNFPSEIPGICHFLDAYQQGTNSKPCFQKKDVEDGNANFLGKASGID
experiment description: cGMP GloSensor cell-based assay, 384-well format (Example 2a)
condition context: HEK293 GloSensor 40F cGMP cells; 10 μM DETA-NONOate; 50% of high control (30 μM Compound Y); read-out: Abs EC50
pEC50: −log10 of the molar value.

Before answering, review these 6 worked examples.
mol	target desc	measurement kind	value
Fc1cccc(Cc2nc(-c3nc(C(F)(F)F)n[nH]3)cn3ncnc23)c1	sGC enzyme (Homo sapiens, UniProt Q02108+Q02153)	pEC50	≥ 7.00
Fc1ccccc1Cc1nc(-c2nc(C(F)(F)F)n[nH]2)cn2ccnc12	sGC enzyme (Homo sapiens, UniProt Q02108+Q02153)	pEC50	≥ 7.00
Fc1cc(F)cc(Cc2nc(-c3nc(C(F)(F)F)n[nH]3)cn3ccnc23)c1	sGC enzyme (Homo sapiens, UniProt Q02108+Q02153)	pEC50	≥ 7.00
Nc1nc(-c2cn3ccnc3c(Cc3ccccc3F)n2)n(CC(F)(F)F)n1	sGC enzyme (Homo sapiens, UniProt Q02108+Q02153)	pEC50	< 6.00
FC(F)(F)c1n[nH]c(-c2cn3ncnc3c(Cc3ccccc3)n2)n1	sGC enzyme (Homo sapiens, UniProt Q02108+Q02153)	pEC50	6.00 to 7.00
Fc1cccc(Cc2nc(-c3nc(C(F)(F)F)n[nH]3)cn3ncnc23)c1F	sGC enzyme (Homo sapiens, UniProt Q02108+Q02153)	pEC50	≥ 7.00

// pEC50 lookup, key: Cc1cn2cc(-c3nc(C(F)F)n[nH]3)nc(Cc3ccccc3F)c2n1
< 6.00

Entry Fc1cccc(F)c1Cc1nc(-c2nc(C(F)(F)F)n[nH]2)cn2ccnc12 has what pEC50?
< 6.00

// lookup pEC50 for Nc1n[nH]c(-c2cn3ccnc3c(Cc3ccccc3F)n2)n1
6.00 to 7.00
